Test: Selectivity index, ratio of IC50 for mouse 3T3 cells to MIC for Mycobacterium tuberculosis H37Rv CNCTC My 331/88
Type: toxicity
Details: read-out: Selectivity Index
Endpoint label: selectivity ratio

Prompt: Which measured selectivity ratio value corresponds to "COc1ccc(Cn2nnc(-c3cc([N+](=O)[O-])cc([N+](=O)[O-])c3)n2)cc1" ?
Response: > 1000

---

System: Trichophyton mentagrophytes
Test: Antifungal activity against Trichophyton mentagrophytes 445 after 72 hrs by broth microdilution method
Format: functional
Conditions: Trichophyton mentagrophytes, 445, 72 h
Endpoint label: MIC

Prompt: Which measured MIC value corresponds to "CCCCCCCCCCCCn1nnc(-c2cc([N+](=O)[O-])cc([N+](=O)[O-])c2)n1" ?
Response: > 250 µM

Prompt: Which measured MIC value corresponds to "O=[N+]([O-])c1cc(-c2nnn(CSc3nnnn3-c3ccc(Cl)cc3)n2)cc([N+](=O)[O-])c1" ?
Response: > 125 µM

Prompt: Which measured MIC value corresponds to "O=[N+]([O-])c1cc(-c2nnn(CSc3nnnn3-c3ccccc3)n2)cc([N+](=O)[O-])c1" ?
Response: > 125 µM

Prompt: Which measured MIC value corresponds to "O=[N+]([O-])c1cc(-c2nnn(Cc3ccc(Cl)cc3)n2)cc([N+](=O)[O-])c1" ?
Response: > 500 µM

---

System: Mycobacterium avium
Test: Antimycobacterial activity against Mycobacterium avium CNCTC My 330/80 after 14 days by micromethod
Type: functional
Conditions: CNCTC My 330/80, 336 h
Endpoint label: MIC99 (µM)
# value in µM; strip the unit string

Prompt: Which measured MIC99 value corresponds to "COc1cccc(Cn2nnc(-c3cc([N+](=O)[O-])cc([N+](=O)[O-])c3)n2)c1" ?
Response: 4

Prompt: Which measured MIC99 value corresponds to "O=[N+]([O-])c1cc(-c2nnn(CCSc3nnnn3-c3ccc(Cl)c(Cl)c3)n2)cc([N+](=O)[O-])c1" ?
Response: 2

Prompt: Which measured MIC99 value corresponds to "COc1ccccc1-n1nnnc1Sc1cc([N+](=O)[O-])cc([N+](=O)[O-])c1" ?
Response: 16

Prompt: Which measured MIC99 value corresponds to "Cn1nnnc1SCn1nnc(-c2cc([N+](=O)[O-])cc([N+](=O)[O-])c2)n1" ?
Response: 32

Prompt: Which measured MIC99 value corresponds to "O=[N+]([O-])c1cc(-c2nnn(Cc3c(F)cccc3Cl)n2)cc([N+](=O)[O-])c1" ?
Response: 4

Prompt: Which measured MIC99 value corresponds to "O=[N+]([O-])c1cc(-c2nnn(Cc3ccccc3)n2)cc([N+](=O)[O-])c1" ?
Response: 8

Prompt: Which measured MIC99 value corresponds to "COc1ccccc1-n1nnnc1SCn1nnc(-c2cc([N+](=O)[O-])cc([N+](=O)[O-])c2)n1" ?
Response: 32

Prompt: Which measured MIC99 value corresponds to "Cn1nnc(-c2cc([N+](=O)[O-])cc([N+](=O)[O-])c2)n1" ?
Response: 62.5

Prompt: Which measured MIC99 value corresponds to "COc1ccc(Cn2nnnc2-c2cc([N+](=O)[O-])cc([N+](=O)[O-])c2)cc1" ?
Response: 16

---

Could you please report measured MIC for the items listed next?
Test system: Lichtheimia corymbifera
Experiment: Antifungal activity against Absidia corymbifera 272 after 24 hrs by broth microdilution method
Type: functional
Conditions: Lichtheimia corymbifera, 272, 24 h

Prompt: Can you look up MIC on Lichtheimia corymbifera for "CCCCCCCCCCCCn1nnc(-c2cc([N+](=O)[O-])cc([N+](=O)[O-])c2)n1" ?
Response: > 250 µM

Prompt: Can you look up MIC on Lichtheimia corymbifera for "Cc1ccc(Cn2nnnc2-c2cc([N+](=O)[O-])cc([N+](=O)[O-])c2)cc1" ?
Response: > 500 µM

Prompt: Can you look up MIC on Lichtheimia corymbifera for "COc1cccc(-n2nnnc2SCn2nnc(-c3cc([N+](=O)[O-])cc([N+](=O)[O-])c3)n2)c1" ?
Response: > 500 µM

Prompt: Can you look up MIC on Lichtheimia corymbifera for "O=[N+]([O-])c1cc(-c2nnn(Cc3ccc(Br)cc3)n2)cc([N+](=O)[O-])c1" ?
Response: > 500 µM

Prompt: Can you look up MIC on Lichtheimia corymbifera for "OC(Cn1cncn1)(Cn1cncn1)c1ccc(F)cc1F" ?
Response: > 500 µM

Prompt: Can you look up MIC on Lichtheimia corymbifera for "O=[N+]([O-])c1cc(-c2nnnn2Cc2ccccc2)cc([N+](=O)[O-])c1" ?
Response: 500 µM

Prompt: Can you look up MIC on Lichtheimia corymbifera for "COc1ccc(Cn2nnnc2-c2cc([N+](=O)[O-])cc([N+](=O)[O-])c2)cc1" ?
Response: 500 µM

Prompt: Can you look up MIC on Lichtheimia corymbifera for "O=[N+]([O-])c1cc(-c2nnn(CSc3nnnn3-c3ccc(Cl)cc3)n2)cc([N+](=O)[O-])c1" ?
Response: > 125 µM

Prompt: Can you look up MIC on Lichtheimia corymbifera for "O=[N+]([O-])c1cc(-c2nnn(Cc3ccccc3F)n2)cc([N+](=O)[O-])c1" ?
Response: > 500 µM

Prompt: Can you look up MIC on Lichtheimia corymbifera for "Cc1ccc(Cn2nnc(-c3cc([N+](=O)[O-])cc([N+](=O)[O-])c3)n2)cc1" ?
Response: > 500 µM

Prompt: Can you look up MIC on Lichtheimia corymbifera for "O=[N+]([O-])c1cc(-c2nnn(CSc3nnnn3-c3ccc(Cl)c(Cl)c3)n2)cc([N+](=O)[O-])c1" ?
Response: > 125 µM

Prompt: Can you look up MIC on Lichtheimia corymbifera for "O=[N+]([O-])c1cc(-c2nnn(Cc3ccc(F)cc3)n2)cc([N+](=O)[O-])c1" ?
Response: > 500 µM

Prompt: Can you look up MIC on Lichtheimia corymbifera for "COc1ccc(Cn2nnc(-c3cc([N+](=O)[O-])cc([N+](=O)[O-])c3)n2)cc1" ?
Response: > 500 µM

Prompt: Can you look up MIC on Lichtheimia corymbifera for "O=[N+]([O-])c1cc(-c2nnn(Cc3cccc(Br)c3)n2)cc([N+](=O)[O-])c1" ?
Response: > 500 µM

Prompt: Can you look up MIC on Lichtheimia corymbifera for "C[C@@H]1[C@H](O)[C@@H](C)/C=C/C=C/C=C/C=C/C=C/C=C/C=C/[C@H](O[C@@H]2O[C@H](C)[C@@H](O)[C@H](N)[C@@H]2O)C[C@@H]2O[C@](O)(C[C@@H](O)C[C@@H](O)[C@H](O)CC[C@@H](O)C[C@@H](O)CC(=O)O[C@H]1C)C[C@H](O)[C@H]2C(=O)O" ?
Response: 1 µM

Prompt: Can you look up MIC on Lichtheimia corymbifera for "O=[N+]([O-])c1cc(-c2nnn(Cc3cccc(Cl)c3)n2)cc([N+](=O)[O-])c1" ?
Response: > 500 µM

All values here come from ChEMBL document CHEMBL4011590.
